# assay-explanation: modulators of S6 phosphorylation in cells, primary screen, cell-based, A549, cytoblot, luminescence, serum-stimulated (AID 1158);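 note: serum-stimulated A549 lung adenocarcinoma cells; signal is phosphorylated S6 detected by cytoblot immunostaining with HRP secondary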
# settings: A549 phospho-S6 cytoblot, 5 h, higher = more signal
I'd be grateful if you could share measured z-score for these entries.
Give bare numbers.

Example compounds with recorded z-score:
- O=C1[C@H]2[C@H]3[C@H](O)[C@H](O)CC(=NOC[C@@H](O)COCc4ccco4)[C@@H]3CC[C@H]2C(=O)N1C[C@@H]1CCCO1: -0.605
- CC(C)CON=C1C[C@@H](O)[C@@H](O)[C@@H]2[C@@H]3C(=O)N(C[C@@H]4CCCO4)C(=O)[C@@H]3CC[C@@H]12: 0.324
- C[C@@H](c1ccccc1)N1C(=O)[C@H]2[C@H]3[C@H](O)[C@H](O)CC(=O)[C@H]3CC[C@H]2C1=O: 0.297
- CO[C@H]1COC(=O)CC=C[C@H](C)[C@@H](OC)COC(=O)[C@@H](C)NC(=O)CC=C[C@@H]1C: 1.03
- O=C(NN=C1C[C@@H](O)[C@@H](O)[C@@H]2[C@@H]3C(=O)N(C[C@@H]4CCCO4)C(=O)[C@@H]3CC[C@@H]12)OCc1ccccc1: 2.18

Items follow; give z-score for each.
1. CO[C@@H]1COC(=O)[C@@H](C)NC(=O)CC=C[C@@H](C)[C@H](NS(=O)(=O)c2ccc(C)cc2)COC(=O)[C@H](C)NC(=O)CC=C[C@H]1C
2. CC(=O)OC[C@H]1O[C@H](CC=NO[C@H](C)c2cn([C@H](CO)Cc3ccccc3)nn2)C=C[C@@H]1OC(C)=O
3. CCOC(=O)NN=C1C[C@@H](O)[C@@H](O)[C@@H]2[C@@H]3C(=O)N([C@@H](C)c4ccccc4)C(=O)[C@@H]3CC[C@H]12
4. C[C@H]1Cc2c(COc3ccccc3)nc3c(c2CO1)CN(CCOc1ccccc1)CC3
5. COC(=O)CC=C[C@@H](C)[C@@H](C=NOC(C)CN1CCCc2nc(C)c(C)cc21)OC (some centres undefined)
6. CCN1C(=O)[C@H]2[C@H]3[C@H](O)[C@H](O)CC(=NOC[C@H]4O[C@H](c5ccccc5)C=C[C@@H]4Oc4ccc(OC)cc4)[C@@H]3CC[C@H]2C1=O
7. CCOC(=O)[C@H](Cc1ccccc1)NC(=O)CCC1CC(OC(=O)NCc2cccc3ccccc23)CC2(CCCC(COC(=O)NCC(c3ccccc3)c3ccccc3)O2)O1 (some centres undefined)
8. COc1cc(O)c(C(=O)C=Cc2ccc3c(c2)OCO3)c(OC)c1

Marked response:
[-0.363, -0.871, -0.34, 0.44, -0.77, -0.763, 0.704, -0.523]

Per the records, this compound ( COC(=O)[C@H](C)NC(=O)CCC1CC(OC(=O)NCc2ccc3c(c2)OCO3)CC2(CCCC(COC(=O)NCC(c3ccccc3)c3ccccc3)O2)O1 (some centres undefined) ) has z-score equal to 3.66

Every entry's value here was drawn from PubChem BioAssay.
